conditions: [M-H]-; instrument: DT; single field, calibrated with Agilent tune mix (Agilent)
Overview of recorded collision cross section (N2) for various compounds
MEASURED_QUANTITY: collision cross section (N2) (Å²)

>  <COMPOUND>
O=C(O)CCCCCC(=O)O

>  <MEASURED_QUANTITY>
collision cross section (N2)

>  <UNIT_ABBREV>
Å²

>  <MEASUREMENT>
129.29

$$$$
>  <COMPOUND>
C[C@H](CCC(=O)O)[C@H]1CC[C@H]2[C@@H]3[C@H](O)C[C@@H]4C[C@H](O)CC[C@]4(C)[C@H]3CC[C@]12C [Chenodeoxycholate]

>  <MEASURED_QUANTITY>
collision cross section (N2)

>  <UNIT_ABBREV>
Å²

>  <MEASUREMENT>
201.51

$$$$
>  <COMPOUND>
Nc1[nH]c(=O)nc2nc[nH]c12 [2-Hydroxyadenine]

>  <MEASURED_QUANTITY>
collision cross section (N2)

>  <UNIT_ABBREV>
Å²

>  <MEASUREMENT>
121.04

$$$$
>  <COMPOUND>
Nc1nc(=O)c2c([nH]1)NCC(CNc1ccc(C(=O)N[C@@H](CCC(=O)O)C(=O)O)cc1)N2 (stereo partly drawn) [Tetrahydrofolate]

>  <MEASURED_QUANTITY>
collision cross section (N2)

>  <UNIT_ABBREV>
Å²

>  <MEASUREMENT>
195.36

$$$$
>  <COMPOUND>
Nc1ccn([C@H]2C[C@H](O)[C@@H](COP(=O)(O)OP(=O)(O)O)O2)c(=O)n1 [2'-Deoxycytidine diphosphate]

>  <MEASURED_QUANTITY>
collision cross section (N2)

>  <UNIT_ABBREV>
Å²

>  <MEASUREMENT>
170.97

$$$$
>  <COMPOUND>
CCCCCCCCCCCCCCC(=O)O

>  <MEASURED_QUANTITY>
collision cross section (N2)

>  <UNIT_ABBREV>
Å²

>  <MEASUREMENT>
162.72

$$$$
>  <COMPOUND>
O=C(O)C(=O)Cc1c[nH]c2ccccc12

>  <MEASURED_QUANTITY>
collision cross section (N2)

>  <UNIT_ABBREV>
Å²

>  <MEASUREMENT>
138.82

$$$$
>  <COMPOUND>
CC(C)C[C@H](O)C(=O)O [Hydroxyisocaproic acid]

>  <MEASURED_QUANTITY>
collision cross section (N2)

>  <UNIT_ABBREV>
Å²

>  <MEASUREMENT>
126.06

$$$$

###

settings: [M+H]+; instrument: DT; stepped-field

>  <COMPOUND>
Cc1cn([C@H]2C[C@H](O)[C@@H](COP(=O)(O)O)O2)c(=O)[nH]c1=O [Thymidine 5'-Monophosphate]

>  <collision cross section (N2) (Å²)>
163.84

$$$$
>  <COMPOUND>
O=C1C(=O)c2cccc3cccc1c23 [Acenaphthenequinone]

>  <collision cross section (N2) (Å²)>
145.51

$$$$
>  <COMPOUND>
Oc1ccc(O)cc1 [Hydroquinone]

>  <collision cross section (N2) (Å²)>
128.79

$$$$
>  <COMPOUND>
O=C(O)C1=C[C@@H](O)[C@@H](O)[C@H](O)C1 [Shikimic Acid]

>  <collision cross section (N2) (Å²)>
149.5

$$$$
>  <COMPOUND>
CCCCCCCCCCCCCCCC(=O)OCC(O)COP(=O)([O-])OCC[N+](C)(C)C (stereo not given) [LPC(16:0)]

>  <collision cross section (N2) (Å²)>
233.3

$$$$
>  <COMPOUND>
O=c1cc[nH]c(=O)[nH]1 [Uracil]

>  <collision cross section (N2) (Å²)>
126.98

$$$$
>  <COMPOUND>
CN(C)C(=O)Nc1cccc(C(F)(F)F)c1 [Fluometuron]

>  <collision cross section (N2) (Å²)>
152.2

$$$$
>  <COMPOUND>
CCCCC/C=C\C/C=C\C/C=C\C/C=C\CCCCCC(=O)O [Adrenic Acid]

>  <collision cross section (N2) (Å²)>
189.41

$$$$
>  <COMPOUND>
Cc1ncc(CO)c(CN)c1O [Pyridoxamine]

>  <collision cross section (N2) (Å²)>
135.79

$$$$
>  <COMPOUND>
O=C(O)[C@@H]1CCCCN1 [L-Pipecolic Acid]

>  <collision cross section (N2) (Å²)>
130.93

$$$$
>  <COMPOUND>
NCCP(=O)(O)O [2-Aminoethylphosphonate]

>  <collision cross section (N2) (Å²)>
132.21

$$$$
>  <COMPOUND>
Cn1cncc1C[C@H](NC(=O)CCN)C(=O)O [L-Anserine]

>  <collision cross section (N2) (Å²)>
155.97

$$$$
>  <COMPOUND>
Cc1ccc2cc3ccccc3cc2c1 [2-Methylanthracene]

>  <collision cross section (N2) (Å²)>
138.61

$$$$
>  <COMPOUND>
CC[C@H](NC(=O)CC[C@H](N)C(=O)O)C(=O)NCC(=O)O [Ophthalmic Acid]

>  <collision cross section (N2) (Å²)>
167.23

$$$$
>  <COMPOUND>
CCCCCCCCCCC(=O)OC[C@H](COP(=O)([O-])OCC[N+](C)(C)C)OC(=O)CCCCCCCCCC [PC(11:0/11:0)]

>  <collision cross section (N2) (Å²)>
257.07

$$$$
>  <COMPOUND>
CSCC[C@H](N)C(=O)O [L-Methionine]

>  <collision cross section (N2) (Å²)>
133.65

$$$$
>  <COMPOUND>
NC(=NCCC[C@H](N)C(=O)O)N[C@@H](CC(=O)O)C(=O)O [Argininosuccinic Acid]

>  <collision cross section (N2) (Å²)>
167.39

$$$$
>  <COMPOUND>
Nc1nc(=O)c2[nH]cnc2[nH]1 [Guanine]

>  <collision cross section (N2) (Å²)>
133.55

$$$$
>  <COMPOUND>
CCCCCCCCCCCCCCCCCCCCCCCC(=O)OC [Methyl Tetracosanoate]

>  <collision cross section (N2) (Å²)>
187.54

$$$$
>  <COMPOUND>
C[C@@H]1O[C@@H](O[C@H]2[C@H](Oc3cc(O)c4c(c3)O[C@H](c3ccc(O)cc3)CC4=O)O[C@H](CO)[C@@H](O)[C@@H]2O)[C@H](O)[C@H](O)[C@H]1O [Naringin]

>  <collision cross section (N2) (Å²)>
240.62

$$$$
